Cited source: ChEMBL document CHEMBL3853306

experiment: Antidepressant- like activity in mouse assessed as duration of immobility time at 10 mg/kg, ip by tail suspension test (reference value: 130.5 +/- 9.6 secs); assay type: functional, organism-based
assay-readout: TIME

compound=CC(C)=CCOc1ccc(C(=O)/C=C/c2cccc(Br)c2)c(O)c1 result="0.0118 h"

For the 3 compounds below, give their TIME values.
1. COc1ccc(/C=C/C(=O)c2ccc(OCC=C(C)C)cc2O)cc1
2. CNCCC(Oc1ccc(C(F)(F)F)cc1)c1ccccc1 (centres undefined)
3. CC(C)=CCOc1ccc(C(=O)/C=C/c2c(Cl)cccc2Cl)c(O)c1

stdout:
0.0141 h
0.0112 h
0.0135 h
